Reference source: patent US4638005A

target: nitrogenase (Azotobacter vinelandii, UniProt P00459); construct: the nitrogenase sample was prepared from a culture of Azotobacter vinelandii; endogenous in cells; host or cells: Azotobacter vinelandii culture; French press lysate, 10,000 x g supernatant (crude); experiment: Chloroplast-coupled reduction of acetylene to ethylene by nitrogenase (electron carrier bioassay of Benemann); format: biochemical; conditions: Table III ranking
Sequence (P00459 2-290 limits assumed): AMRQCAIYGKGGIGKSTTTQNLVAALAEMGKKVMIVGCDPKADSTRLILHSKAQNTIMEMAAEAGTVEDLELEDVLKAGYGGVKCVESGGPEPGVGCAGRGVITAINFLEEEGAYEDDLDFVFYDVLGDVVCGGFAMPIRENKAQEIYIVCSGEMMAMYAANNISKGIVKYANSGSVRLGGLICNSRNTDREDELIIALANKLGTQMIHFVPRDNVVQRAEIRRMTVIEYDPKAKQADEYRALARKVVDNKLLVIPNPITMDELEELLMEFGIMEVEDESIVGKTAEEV
Classification by ETHYLENE FORMATION % Ferredoxin Activity | ranges: low band: < 20%; middle band: ≥ 20% and < 60%; high band: ≥ 60%

Challenge: Hey, which category is Cc1c[n+](CCCS(=O)(=O)[O-])ccn1 in, do you know?
Response given: high band

Challenge: Into which bin does this compound go? C[n+]1ccnc(C(O)CO)c1.[I-] (centres unmarked)
Response given: middle band

Challenge: Bin this entry: C[n+]1ccnc(CCCCS(=O)(=O)[O-])c1
Response given: high band

Challenge: Sort C[n+]1ccnc(CCC(N)=O)c1 into one of the categories.
Response given: middle band

Challenge: Hello team, could you let me know which band the following compound falls into: CC(=O)NCCc1c[n+](C)ccn1.[I-]
Response given: low band

Challenge: Hi, small favor: classify C[n+]1ccnc(C(=O)O)c1 by its ETHYLENE FORMATION % Ferredoxin Activity when you get a moment.
Response given: low band

Challenge: Sort into band: CCCCc1c[n+](C)ccn1
Response given: low band

Challenge: Each compound maps to one class by ETHYLENE FORMATION % Ferredoxin Activity. Which class for C=Cc1c[n+](C)ccn1 ?
Response given: low band

Challenge: Input C[n+]1ccnc(CCC(O)CO)c1.[I-] (centres unmarked) ; output its category
Response given: middle band

Challenge: Lab note: which band did Cc1c[n+](C)cc(CS(=O)(=O)[O-])n1 land in?
Response given: high band

Challenge: Band of CCC(=O)Cc1c[n+](C)ccn1 [Compound 3500, 1-Methyl-3-(2-oxybutyl)pyrazinium iodide] ?
Response given: low band

Challenge: State the class of the compound shown: CCC(Cc1c[n+](C)ccn1)S(=O)(=O)[O-] (centres unmarked)
Response given: high band

====

Recorded ACTIVITY (nmoles H2 /mg protein/min) values for a group of compounds are listed next.
biological target: nitrogenase (Azotobacter vinelandii); construct: the nitrogenase sample was prepared from a culture of Azotobacter vinelandii; endogenous in cells; host or cells: Azotobacter vinelandii culture; French press lysate, 10,000 x g supernatant (crude); assay: Chloroplast-coupled evolution of hydrogen by nitrogenase in the absence of substrate; format: biochemical; details: Table II; hydrogen evolution, no nitrogen or acetylene; synthetic carriers 2 mM, ferredoxin 0.2 mM
Please append the unit to your numeric answer.

Reference set (3 entries):
CCC(O)Cc1c[n+](C)ccn1.[I-] (stereo not drawn)	29.7 nmoles H2 /mg protein/min
C[n+]1ccnc(CCO)c1.[I-]	8.1 nmoles H2 /mg protein/min
CCCC(c1c[n+](C)ccn1)S(=O)(=O)[O-] (stereo not drawn)	38.1 nmoles H2 /mg protein/min

Entry C[n+]1ccnc(S(=O)(=O)[O-])c1 : ACTIVITY (nmoles H2 /mg protein/min) on nitrogenase (Azotobacter vinelandii) = 26.6 nmoles H2 /mg protein/min

Record for CCC(Cc1c[n+](C)ccn1)S(=O)(=O)[O-] (stereo not drawn) under target or system nitrogenase (Azotobacter vinelandii): ACTIVITY (nmoles H2 /mg protein/min) reported as 19.5 nmoles H2 /mg protein/min

Summary: C[n+]1ccnc(C(N)=O)c1 , nitrogenase (Azotobacter vinelandii), ACTIVITY (nmoles H2 /mg protein/min) = 0.0 nmoles H2 /mg protein/min

Summary: Cc1c[n+](C)cc(CS(=O)(=O)[O-])n1 , nitrogenase (Azotobacter vinelandii), ACTIVITY (nmoles H2 /mg protein/min) = 33.1 nmoles H2 /mg protein/min

Entry C[n+]1ccnc(C(O)CO)c1.[I-] (stereo not drawn) under nitrogenase (Azotobacter vinelandii) had ACTIVITY (nmoles H2 /mg protein/min) of 26.2 nmoles H2 /mg protein/min

GET /values?item= Cc1c[n+](CCCS(=O)(=O)[O-])ccn1 &system= nitrogenase (Azotobacter vinelandii) returns ACTIVITY (nmoles H2 /mg protein/min): 28.4 nmoles H2 /mg protein/min

Kindly note: nitrogenase (Azotobacter vinelandii), C[n+]1ccnc(CCC(N)=O)c1 , ACTIVITY (nmoles H2 /mg protein/min) value reported: 9.5 nmoles H2 /mg protein/min

====

assay: Polarographic half-wave potential (first wave reduction); type: physicochemical; conditions: 0.1 M phosphate buffer pH 7.55, 25° C.
Answer N if E1/2 vs. SCE (mV) is under -700 mV, and Y if it is -700 mV or more.

The examples below pair each entry with its known result.
C[n+]1ccnc2ccccc21	Y
Cc1c[n+](C)cc(CS(=O)(=O)[O-])n1	N
Cc1c[n+](CCCS(=O)(=O)[O-])ccn1	Y
CCC(=O)Cc1c[n+](C)ccn1 [Compound 3500, 1-Methyl-3-(2-oxybutyl)pyrazinium iodide]	Y
C[n+]1ccnc(CCCCS(=O)(=O)[O-])c1	Y
C[n+]1ccnc(C(=O)O)c1	Y
C[n+]1ccnc(C(N)=O)c1	Y
C[n+]1ccnc(CS(C)(=O)=O)c1	Y
CCCCc1c[n+](C)ccn1	Y
Cc1cnc(CS(=O)(=O)[O-])c[n+]1C	Y

Challenge: Could you verify whether the entry O=C(O)CC[n+]1ccncc1.[Br-] [Compound 800, 1-(2-Carboxyethyl)pyrazinium bromide] shows E1/2 vs. SCE (mV) of no less than -700 mV?
Response given: Y

Challenge: Confirm if E1/2 vs. SCE (mV) reported for the compound C[n+]1ccnc(CCS(=O)(=O)[O-])c1 is -700 mV or above.
Response given: N

Challenge: Check this compound for E1/2 vs. SCE (mV) at or above -700 mV: C[n+]1ccnc(S(=O)(=O)[O-])c1
Response given: Y

====

target: nitrogenase (Azotobacter vinelandii, UniProt P00459); construct: the nitrogenase sample was prepared from a culture of Azotobacter vinelandii; endogenous in cells; host or cells: Azotobacter vinelandii culture; French press lysate, 10,000 x g supernatant (crude); test: Chloroplast-coupled reduction of acetylene to ethylene by nitrogenase (electron carrier bioassay of Benemann); assay type: biochemical; settings: Table III ranking
Structures can show the parent of a compound that is named as a salt.
# ETHYLENE FORMATION % Ferredoxin Activity per entry
Please give a number only; it is taken to be in %.

Examples with answers:
Cc1cnc(CS(=O)(=O)[O-])c[n+]1C	98
CCc1c[n+](C)ccn1	2
C[n+]1ccnc(CCS(=O)(=O)[O-])c1	98
C[n+]1ccnc2ccccc21	0
CCCC(c1c[n+](C)ccn1)S(=O)(=O)[O-] (stereo not shown)	107
C[n+]1ccnc(C(N)=O)c1	0
CC(c1c[n+](C)ccn1)S(=O)(=O)[O-] (stereo not shown)	105
COC(=O)c1c[n+](C)ccn1	0
C[n+]1ccnc(C(CC(O)CO)CC(O)CO)c1 (stereo not shown)	33
C[n+]1ccnc(CC(C(O)CO)S(=O)(=O)[O-])c1 (stereo not shown)	110

# ETHYLENE FORMATION % Ferredoxin Activity of C[n+]1ccnc(C(CCCS(=O)(=O)[O-])CCCS(=O)(=O)O)c1 (stereo not shown) [Compound 1800, sodium salt] = 124

For this molecule ( CC(O)c1c[n+](C)ccn1 (stereo not shown) ), measured ETHYLENE FORMATION % Ferredoxin Activity is 17

Noted for O=C(O)CC[n+]1ccncc1.[Br-] [Compound 800, 1-(2-Carboxyethyl)pyrazinium bromide] : its ETHYLENE FORMATION % Ferredoxin Activity reads 50

Record COC(=O)CCc1c[n+](C)ccn1.[I-] , field ETHYLENE FORMATION % Ferredoxin Activity: 22

get_value(item= C[n+]1ccnc(C(C)(C)[N+](=O)[O-])c1.[I-] , readout=ETHYLENE FORMATION % Ferredoxin Activity) returns 31

Record C[n+]1ccnc(CCO)c1.[I-] , field ETHYLENE FORMATION % Ferredoxin Activity: 41

For reference, reported ETHYLENE FORMATION % Ferredoxin Activity for C[n+]1ccnc(CCC(=O)O)c1.[I-] stands at 27

Reported ETHYLENE FORMATION % Ferredoxin Activity of C[n+]1ccnc(CS(C)(=O)=O)c1 : 5

The reported ETHYLENE FORMATION % Ferredoxin Activity of the molecule C[n+]1ccnc(S(=O)(=O)[O-])c1 was 61

ETHYLENE FORMATION % Ferredoxin Activity reported for this molecule Cc1c[n+](C)cc(CO)n1.[I-] : 26

get_value(item= Cc1c[n+](CCCS(=O)(=O)[O-])c(C)cn1 , readout=ETHYLENE FORMATION % Ferredoxin Activity) returns 104

ETHYLENE FORMATION % Ferredoxin Activity in this record for Cc1c[n+](C)ccn1 : 5

====

molecular target: nitrogenase (Azotobacter vinelandii, UniProt P00459); construct: the nitrogenase sample was prepared from a culture of Azotobacter vinelandii; endogenous in cells; host or cells: Azotobacter vinelandii culture; French press lysate, 10,000 x g supernatant (crude); experiment: Chloroplast-coupled reduction of acetylene to ethylene by nitrogenase (electron carrier bioassay of Benemann); format: biochemical; settings: Table IV; acetylene reduction
MEASURED ENDPOINT: % FERREDOXIN ACTIVITY (%)
Respond with the bare value in %.

Please review the following examples before continuing.
C[n+]1ccnc(CCC(N)=O)c1	28
CCCC(c1c[n+](C)ccn1)S(=O)(=O)[O-] (stereo not drawn)	107
COC(=O)CCc1c[n+](C)ccn1.[I-]	22
C[n+]1ccnc(CS(=O)(=O)[O-])c1	61
Cc1c[n+](C)cc(CS(=O)(=O)[O-])n1	99

Value sought: % FERREDOXIN ACTIVITY, system nitrogenase (Azotobacter vinelandii, UniProt P00459), item C[n+]1ccnc(CCC(O)CO)c1.[I-] (stereo not drawn) . Result: 41
